Known pKd of a selection of binders
Biological target: T1, human ApoC3 (huApoC3), native protein purified from human serum (human, UniProt P02656 21-99)
T1 construct: Athens Research and Technology; randomly biotinylated in some assays; also called Apolipoprotein C3
T1 sequence (P02656 21-99): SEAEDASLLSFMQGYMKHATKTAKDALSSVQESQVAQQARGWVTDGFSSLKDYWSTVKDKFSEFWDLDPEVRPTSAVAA
Assay: SPR Biacore, huApoC3 on chip, scFv-Fc as analyte
To interpret pKd, take it as minus log10 of a concentration measured in moles per litre.

{"columns": ["BINDER", "pKd"],
 "data": [
  ["5A4 scFv-Fc (Fc fusion, scFv-Fc format) VH: QLQLVESGGGLVQPGGSLRLSCVASGFAFSHYTMYWVRQAPVRGLERVSAISGGGDRTIYTDSVKGRFTISRDNAANALYLQMNSLQPEDTAVYYCVAQGYEYWGQGTRVTVSS VL: ATMLTQSPGSLSVVPGESASISCKAIQSLVHTDGKTYLYWFLQKPGQSPQRLIYQVSNRGSGVPDRFTGSGSGTDFTLKISGVKAEDAGVYYCAQGTYSSKTFGQGTKLEIK", 9.48],
  ["7A9 scFv-Fc (Fc fusion, scFv-Fc format) VH: EVQVQESGPGLVKPSQTLSLTCTVSGASITNRRYAWTWIRQPPGKGLEWMGVIVYDGNTHVSPSLRSRTSISRDTSKNQFSLQLSSLTPEDTAVYYCARVLLLRDPLSLDYWGQGTQVTVSS VL: SSALTQPPSMSGTLGKTLTISCAGTSSDIGAYNFVSWYQQLPGTAPKLLIYDIDKRASGIPDRFSGSKSGNTASLSISGLQSEDEADYYCAAYGSRDNVVFGGGTHLTVL", 9.59],
  ["8B7 scFv-Fc (Fc fusion, scFv-Fc format) VH: EVQVQESGPGLVKPSQTLSLTCTVSGASITNRRYAWTWIRQPPGKGLEWMGVIVYDGNTHVSPSLRSRTSISRDTSKNQFSLQLSSLTPEDTAVYYCARVLLLRDPLSLDYWGQGTQVTVSS VL: SSALTQPPSMSGTLGKTLTISCAGTSSDIGAYNFVSWYQQLPGTAPKLLIYDIDKRASGIPDRFSGSKSGNTASLSISGLQSEDEADYYCAAYGSRDNVVFGGGTHLTVL", 9.62],
  ["8A4 scFv-Fc (Fc fusion, scFv-Fc format) VH: QVQLVESGGGLVQPGGSLKVSCTASGFTFNNYAMRWVRQAEGKGLEWVSSIDSGGDRTKYGDSVKGRFSISRDNAKNTVYLQMDALKPEDTGVYYCVSQGYIFWGQGAQVTVSS VL: ATMLTQSPGSLSVVPGESASISCKASQSLVHSDGKTYLYWLLQKPGQRPQLLIYQVSNHESGVPDRFTGSGSGTDYTLKISGVKAEDAGVYYCAQATYYPLTFGQGTKVELK", 9.63]
]}

Read the next record carefully.
*Q* // query pKd value for entry 11H1 scFv-Fc (Fc fusion, scFv-Fc format) VH: ELQLVESGGGLVQPGGSLRLSCAASGFTFSSYSMRWVRQAPGKGLEWLSSIKSDGSITSYADSVKGRFTMSRDNAKNTLYLQMNSLKSEDTAMYYCTNQGYINWGQGTQVTVSS VL: ATMLTQSPGSLTIVPGESASISCRASQSLIHSAGKTYFYWLLQKPGQRPQLLIYQVSNRESGVPDRFTGSGSGTDFTLKISGVKAEDAGVYYCAQGTYNPKTFGQGTKLEIK
*A* 8.77
